Test system: up to 32 different microorganisms
Assay: in vitro antibacterial activity (MIC), agar dilution on Brain Heart Infusion (BHI) agar with Steers replicator
Assay type: cell-based
Details: organism code EE; unit assumed
Please respond with Fulfilled when measured MIC is strictly beneath 0.4 µg/mL, and with Not fulfilled in all other cases.

Some entries whose results are on file:
[
  {
    "compound": "CC[C@H]1OC(=O)[C@H](C)C(=O)[C@H](C)[C@@H](O[C@@H]2O[C@H](C)C[C@H](N(C)C)[C@H]2O)[C@@](C)(OCC#Cc2ccc(C(=O)Nc3ccccn3)o2)C[C@@H](C)C(=O)[C@H](C)[C@H]2NC(=O)O[C@@]21C",
    "group-label": "Fulfilled"
  },
  {
    "compound": "CCC1OC(=O)C(C)C(=O)C(C)C(OC2OC(C)CC(N(C)C)C2O)C(C)(OCC=Cc2cnc3cccc([N+](=O)[O-])c3c2)CC(C)C(=O)C(C)C2NC(=O)OC12C (centres unmarked)",
    "group-label": "Fulfilled"
  },
  {
    "compound": "CC[C@H]1OC(=O)[C@H](C)C(=O)[C@H](C)[C@@H](O[C@@H]2O[C@H](C)C[C@H](N(C)C)[C@H]2O)[C@@](C)(OCC=NNC(=O)c2ccccc2)C[C@@H](C)C(=O)[C@H](C)[C@H]2NC(=O)O[C@@]21C",
    "group-label": "Not fulfilled"
  },
  {
    "compound": "CCC1OC(=O)C(C)C(=O)C(C)C(OC2OC(C)CC(N(C)C)C2O)C(C)(OCC=Cc2cccc3c([N+](=O)[O-])cccc23)CC(C)C(=O)C(C)C2NC(=O)OC12C (centres unmarked)",
    "group-label": "Not fulfilled"
  },
  {
    "compound": "CC[C@H]1OC(=O)[C@H](C)C(=O)[C@H](C)[C@@H](O[C@@H]2O[C@H](C)C[C@H](N(C)C)[C@H]2O)[C@@](C)(OCC=NOCc2ccnc3ccccc23)C[C@@H](C)C(=O)[C@H](C)[C@H]2NC(=O)O[C@@]21C",
    "group-label": "Fulfilled"
  },
  {
    "compound": "CC[C@H]1OC(=O)[C@H](C)C(=O)[C@H](C)[C@@H](O[C@@H]2O[C@H](C)C[C@H](N(C)C)[C@H]2O)[C@@](C)(OCC#Cc2ccc3ccccc3c2)C[C@@H](C)C(=O)[C@H](C)[C@H]2NC(=O)O[C@@]21C",
    "group-label": "Fulfilled"
  }
]

Now look at this entry.
Request: Hello, I'm reviewing records and need to know if MIC of CC[C@H]1OC(=O)[C@H](C)C(=O)[C@H](C)[C@@H](O[C@@H]2O[C@H](C)C[C@H](N(C)C)[C@H]2O)[C@@](C)(OCC=NOCc2ccc3ccccc3n2)C[C@@H](C)C(=O)[C@H](C)[C@H]2NC(=O)O[C@@]21C is below 0.4 µg/mL. Could you check?
Response: Fulfilled

====

Tested on: up to 32 different microorganisms
Test: in vitro antibacterial activity (MIC), agar dilution on Brain Heart Infusion (BHI) agar with Steers replicator
Type: cell-based
Conditions: organism code QQ; unit assumed
metric-name: MIC

Entry CCC1OC(=O)C(C)C(=O)C(C)C(OC2OC(C)CC(N(C)C)C2O)C(C)(OCC=Cc2cnc3ccc(C(=O)OC)cc3c2)CC(C)C(=O)C(C)C2NC(=O)OC12C (stereo not drawn) [Example 216] — recorded MIC = 100 mg/L

Entry CCC1OC(=O)C(C)C(=O)C(C)C(OC2OC(C)CC(N(C)C)C2O)C(C)(OCC=Cc2ccc(C)c3ccccc23)CC(C)C(=O)C(C)C2NC(=O)OC12C (stereo not drawn) [Example 276] — recorded MIC = > 100 mg/L

Entry CCC1OC(=O)C(C)C(=O)C(C)C(OC2OC(C)CC(N(C)C)C2O)C(C)(OCC=Cc2ccc3ccccc3n2)CC(C)C(=O)C(C)C2NC(=O)OC12C (stereo not drawn) [Example 212, R is —CH2CH═CH-(2-quinolyl)] — recorded MIC = > 100 mg/L

Entry CCC1OC(=O)C(C)C(=O)C(C)C(OC2OC(C)CC(N(C)C)C2O)C(C)(OCC=Cc2ccc3ncc(-c4cccnc4)cc3c2)CC(C)C(=O)C(C)C2NC(=O)OC12C (stereo not drawn) [Example 274] — recorded MIC = > 100 mg/L

Entry CC[C@H]1OC(=O)[C@H](C)C(=O)[C@H](C)[C@@H](O[C@@H]2O[C@H](C)C[C@H](N(C)C)[C@H]2O)[C@@](C)(OCCNCCCc2ccccc2)C[C@@H](C)C(=O)[C@H](C)[C@H]2NC(=O)O[C@@]21C [Example 223] — recorded MIC = 50 mg/L

Entry CCC1OC(=O)C(C)C(=O)C(C)C(OC2OC(C)CC(N(C)C)C2O)C(C)(OCC=Cc2ccc(-n3cccc3)cc2)CC(C)C(=O)C(C)C2NC(=O)OC12C (stereo not drawn) [Example 282] — recorded MIC = > 100 mg/L

Entry CCC1OC(=O)C(C)C(=O)C(C)C(OC2OC(C)CC(N(C)C)C2O)C(C)(OCC=Cc2ccc3cc(OC)ccc3c2)CC(C)C(=O)C(C)C2NC(=O)OC12C (stereo not drawn) [Example 283] — recorded MIC = > 100 mg/L

Entry CCC1OC(=O)C(C)C(=O)C(C)C(OC2OC(C)CC(N(C)C)C2O)C(C)(OCc2cccc(I)c2)CC(C)C(=O)C(C)C2NC(=O)OC12C (stereo not drawn) [Example 285] — recorded MIC = > 100 mg/L

Entry CC[C@H]1OC(=O)[C@H](C)C(=O)[C@H](C)[C@@H](O[C@@H]2O[C@H](C)C[C@H](N(C)C)[C@H]2O)[C@@](C)(OCC=Cc2ccc3ncc(Br)cc3c2)C[C@@H](C)C(=O)[C@H](C)[C@H]2NC(=O)O[C@@]21C [Example 219, R is —CH2CH═CH-(3-bromo-6-quinolyl)] — recorded MIC = 100 mg/L

Entry C=CCO[C@@]1(C)C[C@@H](C)C(=O)[C@H](C)[C@H]2N(N)C(=O)O[C@]2(C)[C@@H](CC)OC(=O)[C@H](C)C(=O)[C@H](C)[C@H]1O[C@@H]1O[C@H](C)C[C@H](N(C)C)[C@H]1O [Example 262] — recorded MIC = > 100 mg/L

Entry CC[C@H]1OC(=O)[C@H](C)C(=O)[C@H](C)[C@@H](O[C@@H]2O[C@H](C)C[C@H](N(C)C)[C@H]2O)[C@@](C)(OCC#Cc2ccccc2)C[C@@H](C)C(=O)[C@H](C)[C@H]2NC(=O)O[C@@]21C [Example 249] — recorded MIC = 100 mg/L

Entry CC[C@H]1OC(=O)[C@H](C)C(=O)[C@H](C)[C@@H](O[C@@H]2O[C@H](C)C[C@H](N(C)C)[C@H]2O)[C@@](C)(OCC#Cc2ccc3ccccc3c2)C[C@@H](C)C(=O)[C@H](C)[C@H]2NC(=O)O[C@@]21C [Example 251] — recorded MIC = > 100 mg/L

Entry CC[C@H]1OC(=O)[C@H](C)C(=O)[C@H](C)[C@@H](O[C@@H]2O[C@H](C)C[C@H](N(C)C)[C@H]2O)[C@@](C)(OCC(=O)c2ccc(F)cc2)C[C@@H](C)C(=O)[C@H](C)[C@H]2NC(=O)O[C@@]21C [Example 240] — recorded MIC = > 100 mg/L

Entry CCC1OC(=O)C(C)C(=O)C(C)C(OC2OC(C)CC(N(C)C)C2O)C(C)(OCC=Cc2cnc3ccc(NC(C)=O)cc3c2)CC(C)C(=O)C(C)C2NC(=O)OC12C (stereo not drawn) [Example 203] — recorded MIC = 100 mg/L

Entry CCC1OC(=O)C(C)C(=O)C(C)C(OC2OC(C)CC(N(C)C)C2O)C(C)(OCC=Cc2cnc3ccc(C(N)=O)cc3c2)CC(C)C(=O)C(C)C2NC(=O)OC12C (stereo not drawn) [Example 217] — recorded MIC = 50 mg/L

Entry CCC1OC(=O)C(C)C(=O)C(C)C(OC2OC(C)CC(N(C)C)C2O)C(C)(OCC=Cc2cn(C)c(=O)n(C)c2=O)CC(C)C(=O)C(C)C2NC(=O)OC12C (stereo not drawn) [Example 293] — recorded MIC = > 100 mg/L

Entry CC[C@H]1OC(=O)[C@H](C)C(=O)[C@H](C)[C@@H](O[C@@H]2O[C@H](C)C[C@H](N(C)C)[C@H]2O)[C@@](C)(OCCNCc2ccc3ncccc3c2)C[C@@H](C)C(=O)[C@H](C)[C@H]2NC(=O)O[C@@]21C [Example 227] — recorded MIC = 6.2 mg/L

Entry CC[C@H]1OC(=O)[C@H](C)C(=O)[C@H](C)[C@@H](O[C@@H]2O[C@H](C)C[C@H](N(C)C)[C@H]2O)[C@@](C)(OCC#Cc2ccc3cc(Cl)ccc3c2)C[C@@H](C)C(=O)[C@H](C)[C@H]2NC(=O)O[C@@]21C [Example 253] — recorded MIC = 50 mg/L
